This listing pairs molecules with measured Selectivity against HDAC6 (IC50 HDACx/IC50 HDAC6) HDAC1.
testedTarget: Human HDAC1 (Homo sapiens)
Construct: Full length with C-terminal GST tag, MW=79.9 kDa; GST (C); purchased BioMol SE-456; host or cells: Sf9 cells, baculovirus
Sequence (Q13547 whole entry): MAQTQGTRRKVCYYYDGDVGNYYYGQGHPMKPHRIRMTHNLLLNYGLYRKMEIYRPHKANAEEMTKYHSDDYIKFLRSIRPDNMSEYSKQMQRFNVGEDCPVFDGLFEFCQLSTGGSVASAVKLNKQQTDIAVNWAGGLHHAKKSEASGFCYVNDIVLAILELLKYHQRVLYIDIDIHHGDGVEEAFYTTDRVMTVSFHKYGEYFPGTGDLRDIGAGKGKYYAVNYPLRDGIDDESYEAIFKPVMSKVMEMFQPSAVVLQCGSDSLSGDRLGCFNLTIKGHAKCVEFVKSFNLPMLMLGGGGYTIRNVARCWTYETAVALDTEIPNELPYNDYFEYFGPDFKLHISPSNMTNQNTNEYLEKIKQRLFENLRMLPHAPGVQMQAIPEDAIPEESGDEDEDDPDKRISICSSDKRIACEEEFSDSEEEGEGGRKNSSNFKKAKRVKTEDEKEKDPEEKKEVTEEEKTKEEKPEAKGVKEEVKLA
methodSummary: In vitro HDAC1 inhibition, fluorogenic peptide assay
Format: biochemical
measurementSetup: IC50 HDAC1/IC50 HDAC6

Some solved entries appear below for comparison.
Exam item: Please give the measured Selectivity against HDAC6 (IC50 HDACx/IC50 HDAC6) HDAC1 for this molecule: O=C(CCCCCNC(=O)c1[nH]c(-c2ccc(O)cc2)cc1-c1ccccc1)NO
Marked response: 20.1

Exam item: Selectivity against HDAC6 (IC50 HDACx/IC50 HDAC6) HDAC1 for COc1ccc(-c2cc(-c3ccccc3)c(C(=O)NCCCCCC(=O)NO)[nH]2)cc1 [Compound B, reference compound] ?
Marked response: 8.6

Exam item: Please give the measured Selectivity against HDAC6 (IC50 HDACx/IC50 HDAC6) HDAC1 for this molecule: O=C(CCCCCNC(=O)c1[nH]c(-c2ccccc2)cc1-c1ccc(O)cc1)NO
Marked response: 25.3

// next item, Selectivity against HDAC6 (IC50 HDACx/IC50 HDAC6) HDAC1 requested
Exam item: So what does the record say about Selectivity against HDAC6 (IC50 HDACx/IC50 HDAC6) HDAC1 for COc1ccc(-c2cc(-c3ccccc3)[nH]c2C(=O)NCCCCCC(=O)NO)cc1 [Compound A, reference compound] ?
Marked response: 23.2
